B1: tRNA (parent)
chain: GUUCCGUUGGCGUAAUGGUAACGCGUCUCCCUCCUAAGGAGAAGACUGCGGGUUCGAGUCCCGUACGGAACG

# Variants of: B1
# assay-protocol: yeast fitness relative to wild type (ratio to wild type); higher = fitter; tRNA-Arg(CCU), competitive growth, 37 C, YPD
Variants at the floor of the assay were thinned out.
Can you tell me yeast fitness for the items I'm about to list?
Numbers only.

- mutation-list: "U32A C34U C61U"
  yeast fitness: 0.54
- mutation-list: "G25A A40U"
  yeast fitness: 0.924
- mutation-list: "U7G A37U"
  yeast fitness: 0.72

Okay, here is my list. What is yeast fitness for each of these?
1. C34G G38C
2. C49G A69U
3. G38C G48A
4. C11G G23C
5. C11A U26G

[0.587, 0.955, 0.744, 1.07, 0.599]

Okay, here is my list. What is yeast fitness for each of these?
1. U2A C5G G17C G56C A57G G68U
2. A20U A37C A43U

1: 0.558; 2: 0.59

yeast fitness for U32A C34U is 0.531
